Entries and their Kd
assayed system: C. difficile toxin B from strain VPI10463 (ATCC 43255), toxinotype 0 (Clostridium difficile, UniProt P18177 2-2366)
Sequence (P18177 2-2366 limits assumed): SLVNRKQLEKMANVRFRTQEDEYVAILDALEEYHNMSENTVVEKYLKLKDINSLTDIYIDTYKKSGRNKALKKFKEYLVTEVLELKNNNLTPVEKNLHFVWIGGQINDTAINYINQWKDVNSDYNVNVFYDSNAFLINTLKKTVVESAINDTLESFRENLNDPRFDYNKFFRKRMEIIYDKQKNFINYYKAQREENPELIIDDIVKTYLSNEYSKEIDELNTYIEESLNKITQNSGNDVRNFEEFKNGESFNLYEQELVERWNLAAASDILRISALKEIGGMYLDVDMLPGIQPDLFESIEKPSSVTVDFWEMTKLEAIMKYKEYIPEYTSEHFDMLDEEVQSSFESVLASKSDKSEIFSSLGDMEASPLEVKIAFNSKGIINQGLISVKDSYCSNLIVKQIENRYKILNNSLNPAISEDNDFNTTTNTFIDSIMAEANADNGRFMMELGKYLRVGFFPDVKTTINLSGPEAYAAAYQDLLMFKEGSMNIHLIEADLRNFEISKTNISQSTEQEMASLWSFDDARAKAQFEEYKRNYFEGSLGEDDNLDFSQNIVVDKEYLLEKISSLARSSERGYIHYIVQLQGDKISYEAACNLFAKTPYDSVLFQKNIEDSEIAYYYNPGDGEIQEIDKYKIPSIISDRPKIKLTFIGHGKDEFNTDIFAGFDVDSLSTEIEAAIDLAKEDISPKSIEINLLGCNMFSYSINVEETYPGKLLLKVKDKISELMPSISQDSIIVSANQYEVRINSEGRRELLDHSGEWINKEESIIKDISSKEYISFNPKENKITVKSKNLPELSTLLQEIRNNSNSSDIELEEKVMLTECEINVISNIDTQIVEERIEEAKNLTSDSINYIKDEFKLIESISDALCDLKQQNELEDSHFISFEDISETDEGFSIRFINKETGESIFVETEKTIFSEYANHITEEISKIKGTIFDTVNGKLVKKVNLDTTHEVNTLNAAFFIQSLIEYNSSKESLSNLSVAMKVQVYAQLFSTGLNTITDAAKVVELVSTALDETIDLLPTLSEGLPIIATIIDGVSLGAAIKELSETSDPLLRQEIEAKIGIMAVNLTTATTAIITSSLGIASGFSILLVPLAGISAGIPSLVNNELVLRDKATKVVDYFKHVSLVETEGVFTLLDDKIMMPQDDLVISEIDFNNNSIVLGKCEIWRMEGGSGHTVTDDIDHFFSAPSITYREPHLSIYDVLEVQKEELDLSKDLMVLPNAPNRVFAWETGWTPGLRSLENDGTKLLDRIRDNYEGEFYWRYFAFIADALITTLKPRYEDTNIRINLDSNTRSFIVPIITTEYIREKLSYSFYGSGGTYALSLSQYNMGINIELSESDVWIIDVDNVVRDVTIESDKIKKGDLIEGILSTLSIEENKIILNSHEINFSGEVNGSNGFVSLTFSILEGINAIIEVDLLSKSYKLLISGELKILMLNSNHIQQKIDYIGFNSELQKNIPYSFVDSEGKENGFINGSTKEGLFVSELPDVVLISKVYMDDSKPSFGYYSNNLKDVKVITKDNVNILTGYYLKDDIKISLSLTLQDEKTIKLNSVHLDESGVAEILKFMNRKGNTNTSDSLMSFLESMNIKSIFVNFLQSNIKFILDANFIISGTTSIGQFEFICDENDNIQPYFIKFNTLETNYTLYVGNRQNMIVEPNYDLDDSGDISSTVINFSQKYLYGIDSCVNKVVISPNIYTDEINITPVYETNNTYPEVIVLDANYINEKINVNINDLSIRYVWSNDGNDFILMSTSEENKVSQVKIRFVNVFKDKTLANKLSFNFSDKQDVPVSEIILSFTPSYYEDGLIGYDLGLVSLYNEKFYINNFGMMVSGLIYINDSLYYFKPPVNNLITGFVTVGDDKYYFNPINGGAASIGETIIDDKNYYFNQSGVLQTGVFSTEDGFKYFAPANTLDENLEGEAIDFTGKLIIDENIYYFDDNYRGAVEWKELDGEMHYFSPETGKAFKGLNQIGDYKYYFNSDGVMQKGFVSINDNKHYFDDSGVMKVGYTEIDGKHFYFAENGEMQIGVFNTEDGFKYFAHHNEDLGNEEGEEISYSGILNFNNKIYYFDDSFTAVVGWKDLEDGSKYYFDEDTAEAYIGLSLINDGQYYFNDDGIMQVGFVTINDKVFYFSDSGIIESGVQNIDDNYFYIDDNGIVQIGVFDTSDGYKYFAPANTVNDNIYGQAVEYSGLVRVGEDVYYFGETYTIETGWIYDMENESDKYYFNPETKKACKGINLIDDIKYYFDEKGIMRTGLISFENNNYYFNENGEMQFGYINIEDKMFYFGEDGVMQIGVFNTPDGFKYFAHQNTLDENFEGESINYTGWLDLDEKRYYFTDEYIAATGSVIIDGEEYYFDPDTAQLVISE
experiment: BLI (Octet Red96), antibody on Protein A sensor, toxin in solution
property name: Kd (nM)

B4 antibody (antibody, V domains shown) VH: EVQLVESGGGLVKPGGSLRVSCAASGFTFSSYSMNWIRQAPGKGLEWVSSISSNSSYIYYADSVKGRFTISRDNAKNSLYLQMNSLRAEDTAVYYCARDRDYSNYLTAWGQGTLVTVSS VL: QSVLTQPPSVSGAPGQRVTISCTGSSSNIGAGYDVHWYRQLPGTAPKLLIYGKNNRPSGVPNRFSGSKSGTSASLAITGLQAEDEADYYCQSYDSSLSGSVFGGGTKLTVLG: 0.121
B6 antibody (antibody, V domains shown) VH: EVQLVESGGGLVQPGGSLRLSCAASGFTFTTSTMNWVRQAPGKGLEWVSYITRTSTVIYYADSVKGRFTISRDNAKNSLYLQMSSLRAEDTAVYYCARGVRDIGGNGFDYWGQGTLVTVSS VL: EIVLTQSPGTLSLSPGERATLSCRASQSVTSSYLAWYQQKTGQAPRLLIYGASSRATGIPDRFSGSGSGTDFTLTIARLEPEDFAVYYCQQYGSSPPYTFGQGTKLEIKR: 0.000726
B3 antibody (antibody, V domains shown) VH: EVQLVESGGGLVQPGGSLRLSCSASGFTFRSYWMHWVRQVPGKGLVWVSCINKEGSSTTYADSVKGRFTISRDNAKNTLYLQMNSLRADDTAVYYCLRGYDVDYWGQGTLVTVSS VL: QAVLTQPSSLSASPGASVSLTCTLRSGVNVGSYRIYWYQQKPGSPPRYLLRYKSGLDKHQGSGVPSRFSGSKDDSANAGILFISGLQSENDADYYCLIWHNSAVVFGGGTKLTVLG: 0.487
B1 antibody (antibody, V domains shown) VH: EVQLVESGGGLVQPGGSLRLSCAASGFTFRSYWMHWVRQVPGKGLVWVSCINKEGSSTTYADSVKGRFTISRDNAKNTLYLEMNSLRADDTAVYYCLRGYDVDYWGQGTLVTVSS VL: QAVLTQPSSLSASPGASVSLTCTLRSGINVGTYRIYWYQQKPGSPPRYLLRYKSGLDKHQGSGVPSRFSGSKDDSANAGILFISGLQSEDEADYYCLIWHSSAVVFGGGTKLTVLG: 0.0477

Where do these numbers come from? They come from patent US20190153078A1.
